molecular target: IDH1 R132C (Homo sapiens (Human), UniProt O75874, R132C); assay: Biochemical assay for IDH1-R132C mutant enzyme (conversion of αKG to 2HG, RapidFire MS); conditions: mean ± SEM; 40 minutes
Sequence (O75874 whole entry R132C): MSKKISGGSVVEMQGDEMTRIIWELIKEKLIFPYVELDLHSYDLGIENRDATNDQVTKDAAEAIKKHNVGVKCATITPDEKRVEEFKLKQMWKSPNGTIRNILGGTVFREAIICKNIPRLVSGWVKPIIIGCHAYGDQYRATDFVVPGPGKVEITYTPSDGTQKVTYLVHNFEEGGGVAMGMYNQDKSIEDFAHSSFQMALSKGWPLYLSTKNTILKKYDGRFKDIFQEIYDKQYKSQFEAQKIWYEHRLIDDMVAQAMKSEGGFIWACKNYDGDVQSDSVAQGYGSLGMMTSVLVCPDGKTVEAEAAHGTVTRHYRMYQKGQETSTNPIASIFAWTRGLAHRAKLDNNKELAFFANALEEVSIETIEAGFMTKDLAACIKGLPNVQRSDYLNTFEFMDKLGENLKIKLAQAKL
pIC50: −log10 of the molar value.
assay endpoint: pIC50

(a) C=CC(=O)N1CCN(Cc2ccc([C@H](C)Nc3nc(F)cc(N4C(=O)OC[C@@H]4C(C)C)n3)cc2)CC1
(b) C=CC(=O)N1CCN(Cc2ccc(C(CF)Nc3nccc(N4C(=O)OCC4(C)C)n3)cc2)CC1 (single isomer, unassigned)
(c) C=CC(=O)N1CCN(Cc2ccc([C@H](C)Nc3nc(F)cc(N4C(=O)OC[C@@H]4[C@H](C)F)n3)cc2)CC1
Problem: Please put the entries in order of rising pIC50. Lab note: final answer is the ordered label list.
Solution: b, c, a

(a) C=CC(=O)N1CCN(Cc2ccc([C@H](C)Nc3nccc(N4C(=O)OC[C@@H]4C(C)C)n3)cc2)CC1
(b) C=CC(=O)N1CCN(Cc2ccc([C@H](C)Nc3nc(F)cc(N4C(=O)OC[C@@H]4[C@@H](C)OC)n3)cc2)CC1
(c) C=CC(=O)N1CCN(Cc2ccc([C@H](C)Nc3nccc(N4C(=O)OC[C@@H]4[C@@H](C)OC)n3)cc2)CC1
Problem: Order the records so the highest pIC50 appears first and the lowest last. Lab note: final answer is the ordered label list.
Solution: a, c, b
(a: 7.72, c: 6.91, b: 6.69)

(1) C=CC(=O)N1CCN(Cc2ccc([C@H](C)Nc3ncc(F)c(N4C(=O)OCC4(C)C)n3)cc2)CC1
(2) C=CC(=O)N1CCN(Cc2ccc([C@H](C)Nc3nccc(N4C(=O)OC[C@@H]4CF)n3)cc2)CC1
Problem: Returns: the argument ( 1 or 2 ) having the larger pIC50. API: response body contains the label of the selected item.
Solution: 2
(2: 6.83, 1: 6.60)
